Target: Metabotropic glutamate receptor 8 (Rattus norvegicus) (UniProt P70579)
Sequence (P70579 whole entry, looked up): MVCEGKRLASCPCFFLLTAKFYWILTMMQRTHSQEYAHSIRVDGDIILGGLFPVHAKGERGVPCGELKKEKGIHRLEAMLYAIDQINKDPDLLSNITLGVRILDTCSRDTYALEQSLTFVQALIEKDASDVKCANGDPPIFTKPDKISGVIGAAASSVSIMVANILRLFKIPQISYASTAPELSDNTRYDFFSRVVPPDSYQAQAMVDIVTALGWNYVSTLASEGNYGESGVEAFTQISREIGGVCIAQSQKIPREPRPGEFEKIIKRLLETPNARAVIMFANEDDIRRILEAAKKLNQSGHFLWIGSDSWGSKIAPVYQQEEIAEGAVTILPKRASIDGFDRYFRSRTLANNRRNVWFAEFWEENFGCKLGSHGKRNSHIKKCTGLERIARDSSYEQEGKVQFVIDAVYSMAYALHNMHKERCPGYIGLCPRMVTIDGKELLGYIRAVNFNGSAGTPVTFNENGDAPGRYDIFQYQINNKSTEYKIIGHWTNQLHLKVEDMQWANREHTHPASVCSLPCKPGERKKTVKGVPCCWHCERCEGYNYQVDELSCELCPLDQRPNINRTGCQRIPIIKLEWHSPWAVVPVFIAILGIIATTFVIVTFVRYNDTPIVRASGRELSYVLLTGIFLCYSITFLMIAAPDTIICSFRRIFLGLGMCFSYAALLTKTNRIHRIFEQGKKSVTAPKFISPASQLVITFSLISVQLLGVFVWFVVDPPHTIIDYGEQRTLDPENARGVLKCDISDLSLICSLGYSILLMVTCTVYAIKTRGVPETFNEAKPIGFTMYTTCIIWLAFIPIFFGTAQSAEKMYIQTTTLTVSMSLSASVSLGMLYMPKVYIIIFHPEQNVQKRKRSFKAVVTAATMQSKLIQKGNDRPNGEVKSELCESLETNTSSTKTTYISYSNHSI
Assay: mGluR8 Gi/Go-coupled signaling modulation – cell-based, rat, thallium flux, HTS, primary screen (AID 488969)
Conditions: HEK293 rat mGluR8, GIRK (G protein-gated inwardly rectifying potassium channel) thallium flux, FluoZin2; at 10 µM; stronger effect = higher value; submaximal glutamate (EC20) added with thallium
Whole data set: some 110,000 compounds, median “z-score” near -0.1, cut for the highest 2% near 2. The list comes from a sample in which the highest values are over-represented; it also holds close analogues and randomly drawn compounds.
Could you label it Condition met if measured z-score is 0.03 or higher, and Condition not met otherwise?

Say whether CCc1nc(N)c(C#N)c(-c2cccc3ccccc23)c1C shows z-score of 0.03 or more.
Condition met
